tested on: AN3_CA; assay: CellTiterblue viability, 72 hr, AN3_CA; type: cell-based; details: Homo sapiens, AN3-CA, AN3_CA cells
ATTRIBUTE_MEASURED: GI50

{"SMI": "Cc1cc2c(F)c(Oc3cc(Nc4ccccn4)ncn3)ccc2[nH]1", "GI50": "> 500 nM"}

Q: Provide GI50, system AN3_CA, entry COc1c(Nc2ccc(N3CCN(C)CC3)cn2)ncnc1Oc1ccc2[nH]c(C)cc2c1F
Ans: > 500 nM

Q: Provide GI50, system AN3_CA, entry CC(=O)N1CCN(c2ccc(Nc3ncnc(Oc4ccc5[nH]c(C)cc5c4F)c3F)cc2)CC1
Ans: > 500 nM

====

target: KDR kinase (Homo sapiens, UniProt P35968); construct: purchased Millipore (KinaseProfiler Service); experiment: KinaseProfiler kinase inhibition assay, KDR; type: biochemical; settings: 1 μM compound
Sequence (P35968 20-1356): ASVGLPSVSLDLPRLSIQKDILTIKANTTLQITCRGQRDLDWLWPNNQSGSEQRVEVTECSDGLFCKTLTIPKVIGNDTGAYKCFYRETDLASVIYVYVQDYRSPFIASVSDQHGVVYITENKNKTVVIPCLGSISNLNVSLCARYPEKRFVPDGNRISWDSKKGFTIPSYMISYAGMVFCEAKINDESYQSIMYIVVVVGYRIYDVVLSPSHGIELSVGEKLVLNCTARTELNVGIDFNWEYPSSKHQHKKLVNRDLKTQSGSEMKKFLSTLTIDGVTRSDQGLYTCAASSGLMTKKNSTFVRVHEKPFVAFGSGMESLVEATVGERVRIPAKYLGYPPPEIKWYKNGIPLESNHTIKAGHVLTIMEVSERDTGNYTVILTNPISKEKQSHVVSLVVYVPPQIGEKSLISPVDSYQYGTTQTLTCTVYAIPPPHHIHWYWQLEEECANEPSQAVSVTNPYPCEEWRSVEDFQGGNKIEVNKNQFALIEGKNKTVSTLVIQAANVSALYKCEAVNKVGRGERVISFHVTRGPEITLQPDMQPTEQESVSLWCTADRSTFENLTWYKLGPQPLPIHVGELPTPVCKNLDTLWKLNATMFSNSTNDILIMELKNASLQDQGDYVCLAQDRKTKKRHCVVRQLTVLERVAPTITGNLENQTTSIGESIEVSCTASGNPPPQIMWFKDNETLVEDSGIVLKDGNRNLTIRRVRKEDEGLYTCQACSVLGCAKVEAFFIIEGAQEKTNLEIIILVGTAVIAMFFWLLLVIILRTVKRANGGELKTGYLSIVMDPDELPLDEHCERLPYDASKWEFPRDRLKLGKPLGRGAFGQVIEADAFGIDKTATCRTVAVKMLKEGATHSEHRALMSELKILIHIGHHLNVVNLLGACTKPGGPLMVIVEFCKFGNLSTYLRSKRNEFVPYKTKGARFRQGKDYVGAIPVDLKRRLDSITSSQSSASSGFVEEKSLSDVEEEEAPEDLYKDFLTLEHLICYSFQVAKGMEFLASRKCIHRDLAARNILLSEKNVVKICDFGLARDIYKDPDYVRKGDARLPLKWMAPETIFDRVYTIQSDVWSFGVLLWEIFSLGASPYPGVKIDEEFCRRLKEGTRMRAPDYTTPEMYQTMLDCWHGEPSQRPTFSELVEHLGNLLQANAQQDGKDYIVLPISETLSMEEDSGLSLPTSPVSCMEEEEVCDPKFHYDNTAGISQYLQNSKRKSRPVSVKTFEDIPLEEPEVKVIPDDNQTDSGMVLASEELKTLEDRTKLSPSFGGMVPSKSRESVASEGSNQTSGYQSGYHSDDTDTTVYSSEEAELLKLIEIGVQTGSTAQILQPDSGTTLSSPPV
ATTRIBUTE_MEASURED: inhibition at 1 µM (%)
Please state the figure in %; there is no need to write the unit.

Some solved cases for reference:
{"COMPOUND": "Cc1cc2c(F)c(Oc3cc(Nc4cccc(N5CCN(C)CC5)c4)ncn3)ccc2[nH]1 [Example 13]", "TARGET": "KDR kinase (Homo sapiens, UniProt P35968)", "ATTRIBUTE_MEASURED": "inhibition at 1 µM", "NUMERIC_RESULT": 98}
{"COMPOUND": "Cc1cc2c(F)c(Oc3cc(Nc4cc(C5CC5)[nH]n4)ncn3)ccc2[nH]1 [Example 16]", "TARGET": "KDR kinase (Homo sapiens, UniProt P35968)", "ATTRIBUTE_MEASURED": "inhibition at 1 µM", "NUMERIC_RESULT": 90}
{"COMPOUND": "Cc1cc2c(F)c(Oc3cc(Nc4cc(-c5ccccn5)[nH]n4)ncn3)ccc2[nH]1 [Example 6]", "TARGET": "KDR kinase (Homo sapiens, UniProt P35968)", "ATTRIBUTE_MEASURED": "inhibition at 1 µM", "NUMERIC_RESULT": 97}
{"COMPOUND": "Cc1cc2c(F)c(Oc3ncnc(Nc4ccc(N5CCN(C)CC5)cn4)c3N)ccc2[nH]1 [Compound 47]", "TARGET": "KDR kinase (Homo sapiens, UniProt P35968)", "ATTRIBUTE_MEASURED": "inhibition at 1 µM", "NUMERIC_RESULT": 1}
{"COMPOUND": "COc1c(Nc2ccc(N3CCN(C)CC3)cc2)ncnc1Oc1ccc2[nH]c(C)cc2c1F [Compound 43]", "TARGET": "KDR kinase (Homo sapiens, UniProt P35968)", "ATTRIBUTE_MEASURED": "inhibition at 1 µM", "NUMERIC_RESULT": -7}

Q: For the compound Cc1cc2c(F)c(Oc3cc(Nc4cc(-c5ccccc5)[nH]n4)ncn3)ccc2[nH]1 [Example 4] , give its reported inhibition at 1 µM.
Ans: 98

Q: For the compound Cc1cc2c(F)c(Oc3cc(Nc4ccccn4)ncn3)ccc2[nH]1 [Example 18] , give its reported inhibition at 1 µM.
Ans: 92

Q: For the compound Cc1cc2c(F)c(Oc3cc(Nc4cccc(N5CCOCC5)c4)ncn3)ccc2[nH]1 [Example 8] , give its reported inhibition at 1 µM.
Ans: 98

====

biological target: phospho-FGFR2 (Homo sapiens, UniProt P21802); construct: endogenous in cells; host or cells: Kato III cells; assay: phospho-FGFR ELISA on Kato III cells; type: cell-based; details: read-out: EC50 (nM) P-FGFR2, Kato III cells
Sequence (P21802 22-766 isoform P21802-8 limits assumed): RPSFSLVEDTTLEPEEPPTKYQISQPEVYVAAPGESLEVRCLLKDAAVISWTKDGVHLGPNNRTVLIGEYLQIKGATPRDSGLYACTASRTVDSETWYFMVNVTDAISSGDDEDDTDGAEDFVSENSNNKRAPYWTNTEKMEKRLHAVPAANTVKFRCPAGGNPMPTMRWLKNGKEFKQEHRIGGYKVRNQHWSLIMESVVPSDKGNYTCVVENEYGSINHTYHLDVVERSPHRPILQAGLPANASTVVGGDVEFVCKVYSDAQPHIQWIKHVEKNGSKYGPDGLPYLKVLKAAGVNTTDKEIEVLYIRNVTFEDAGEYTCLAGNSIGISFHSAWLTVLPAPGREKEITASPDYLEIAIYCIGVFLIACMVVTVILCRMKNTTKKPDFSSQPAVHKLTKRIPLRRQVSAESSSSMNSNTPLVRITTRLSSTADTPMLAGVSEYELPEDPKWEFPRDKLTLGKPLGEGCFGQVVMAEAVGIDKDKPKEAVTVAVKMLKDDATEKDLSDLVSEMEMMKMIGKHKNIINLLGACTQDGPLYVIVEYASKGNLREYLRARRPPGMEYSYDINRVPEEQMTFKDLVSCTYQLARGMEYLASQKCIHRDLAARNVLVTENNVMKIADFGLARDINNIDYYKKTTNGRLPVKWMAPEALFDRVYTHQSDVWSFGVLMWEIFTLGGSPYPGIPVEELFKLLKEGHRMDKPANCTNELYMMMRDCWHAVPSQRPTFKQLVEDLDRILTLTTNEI
ATTRIBUTE_MEASURED: EC50 (nM)
Please state the figure in nM; there is no need to write the unit.

Some solved cases for reference:
{"SMI": "Cc1cc2c(F)c(Oc3cc(Nc4ccc(N5CCNCC5)cc4)ncn3)cc(F)c2[nH]1", "ATTRIBUTE_MEASURED": "EC50", "NUMERIC_RESULT": 38}
{"SMI": "CCN1CCN(c2ccc(Nc3ncnc(Oc4ccc5[nH]c(C)cc5c4F)c3C#N)cc2)CC1", "ATTRIBUTE_MEASURED": "EC50", "NUMERIC_RESULT": 18}
{"SMI": "CCN1CCN(c2ccc(Nc3cc(Oc4ccc5[nH]c(C)cc5c4F)ncn3)cc2)CC1", "ATTRIBUTE_MEASURED": "EC50", "NUMERIC_RESULT": 93}

# input for lookup
Q: For the molecule Cc1cc2c(F)c(Oc3cc(Nc4ccc(N5CCN(C)CC5)cc4)ncn3)ccc2[nH]1 , give its reported EC50.
Ans: 88

====

This section presents compounds with their documented inhibition at 1 µM values.
molecular target: FGFR1 kinase (Homo sapiens, UniProt P11362); construct: purchased Millipore (KinaseProfiler Service); experiment: KinaseProfiler kinase inhibition assay, FGFR1; assay type: biochemical; conditions: 1 μM compound
Sequence (P11362 22-822): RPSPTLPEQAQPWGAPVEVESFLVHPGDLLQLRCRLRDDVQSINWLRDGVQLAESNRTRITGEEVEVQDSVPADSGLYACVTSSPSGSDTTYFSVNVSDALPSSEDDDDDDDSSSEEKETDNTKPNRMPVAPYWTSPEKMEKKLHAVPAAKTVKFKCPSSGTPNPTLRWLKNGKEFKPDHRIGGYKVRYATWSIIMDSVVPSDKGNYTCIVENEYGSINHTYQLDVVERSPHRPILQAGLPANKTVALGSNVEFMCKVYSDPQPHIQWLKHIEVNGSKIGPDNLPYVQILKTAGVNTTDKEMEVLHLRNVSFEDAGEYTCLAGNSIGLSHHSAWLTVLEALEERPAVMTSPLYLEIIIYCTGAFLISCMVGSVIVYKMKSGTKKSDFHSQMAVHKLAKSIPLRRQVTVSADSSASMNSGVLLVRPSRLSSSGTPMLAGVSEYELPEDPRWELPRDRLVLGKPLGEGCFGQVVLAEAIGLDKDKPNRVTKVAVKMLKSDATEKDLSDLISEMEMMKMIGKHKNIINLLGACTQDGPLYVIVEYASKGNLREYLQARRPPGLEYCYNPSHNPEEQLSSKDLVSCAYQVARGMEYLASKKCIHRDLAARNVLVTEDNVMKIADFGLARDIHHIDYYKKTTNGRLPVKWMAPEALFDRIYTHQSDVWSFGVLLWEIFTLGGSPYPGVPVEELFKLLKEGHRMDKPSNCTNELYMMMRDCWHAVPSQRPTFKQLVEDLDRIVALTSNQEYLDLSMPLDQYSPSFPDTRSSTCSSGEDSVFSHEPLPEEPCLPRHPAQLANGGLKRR
Please state the figure in %; there is no need to write the unit.

Some solved cases for reference:
{"SMI": "Cc1cc2c(F)c(Oc3cc(Nc4ccc(N5CCN(C)CC5)c(F)c4)ncn3)ccc2[nH]1", "inhibition at 1 µM [%]": 97}
{"SMI": "Cc1cc2c(F)c(Oc3cc(Nc4ccccn4)ncn3)ccc2[nH]1", "inhibition at 1 µM [%]": 87}
{"SMI": "Cc1cc2c(F)c(Oc3ncnc(Nc4ccc(N5CCN(C)CC5)cc4)c3C#N)ccc2[nH]1", "inhibition at 1 µM [%]": 101}

Q: For the compound CCN1CCN(c2ccc(Nc3ncnc(Oc4cc(F)c5[nH]c(C)cc5c4F)c3C#N)nc2)CC1 , give its reported inhibition at 1 µM.
Ans: 100

Q: For the compound Cc1cc2c(F)c(Oc3ncnc(Nc4ccc(N5CCN(C)CC5)cn4)c3Cl)ccc2[nH]1 , give its reported inhibition at 1 µM.
Ans: 98

Q: For the compound Cc1cc2c(F)c(Oc3cc(Nc4ccc(N5CCOCC5)cc4)ncn3)ccc2[nH]1 , give its reported inhibition at 1 µM.
Ans: 75

Q: For the compound Cc1cc2c(F)c(Oc3cc(Nc4ccc(N5CCN(C)CC5)cn4)ncn3)ccc2[nH]1 , give its reported inhibition at 1 µM.
Ans: 100

Q: For the compound Cc1cc2c(F)c(Oc3ncnc(Nc4ccc(N5CCNCC5)cc4)c3F)ccc2[nH]1 , give its reported inhibition at 1 µM.
Ans: 96

====

This section presents compounds with their documented inhibition at 1 µM values.
target: Abl kinase (Homo sapiens, UniProt P00519); construct: purchased Millipore (KinaseProfiler Service); assay: KinaseProfiler kinase inhibition assay, Abl; type: biochemical; settings: 1 μM compound
Sequence (P00519 whole entry): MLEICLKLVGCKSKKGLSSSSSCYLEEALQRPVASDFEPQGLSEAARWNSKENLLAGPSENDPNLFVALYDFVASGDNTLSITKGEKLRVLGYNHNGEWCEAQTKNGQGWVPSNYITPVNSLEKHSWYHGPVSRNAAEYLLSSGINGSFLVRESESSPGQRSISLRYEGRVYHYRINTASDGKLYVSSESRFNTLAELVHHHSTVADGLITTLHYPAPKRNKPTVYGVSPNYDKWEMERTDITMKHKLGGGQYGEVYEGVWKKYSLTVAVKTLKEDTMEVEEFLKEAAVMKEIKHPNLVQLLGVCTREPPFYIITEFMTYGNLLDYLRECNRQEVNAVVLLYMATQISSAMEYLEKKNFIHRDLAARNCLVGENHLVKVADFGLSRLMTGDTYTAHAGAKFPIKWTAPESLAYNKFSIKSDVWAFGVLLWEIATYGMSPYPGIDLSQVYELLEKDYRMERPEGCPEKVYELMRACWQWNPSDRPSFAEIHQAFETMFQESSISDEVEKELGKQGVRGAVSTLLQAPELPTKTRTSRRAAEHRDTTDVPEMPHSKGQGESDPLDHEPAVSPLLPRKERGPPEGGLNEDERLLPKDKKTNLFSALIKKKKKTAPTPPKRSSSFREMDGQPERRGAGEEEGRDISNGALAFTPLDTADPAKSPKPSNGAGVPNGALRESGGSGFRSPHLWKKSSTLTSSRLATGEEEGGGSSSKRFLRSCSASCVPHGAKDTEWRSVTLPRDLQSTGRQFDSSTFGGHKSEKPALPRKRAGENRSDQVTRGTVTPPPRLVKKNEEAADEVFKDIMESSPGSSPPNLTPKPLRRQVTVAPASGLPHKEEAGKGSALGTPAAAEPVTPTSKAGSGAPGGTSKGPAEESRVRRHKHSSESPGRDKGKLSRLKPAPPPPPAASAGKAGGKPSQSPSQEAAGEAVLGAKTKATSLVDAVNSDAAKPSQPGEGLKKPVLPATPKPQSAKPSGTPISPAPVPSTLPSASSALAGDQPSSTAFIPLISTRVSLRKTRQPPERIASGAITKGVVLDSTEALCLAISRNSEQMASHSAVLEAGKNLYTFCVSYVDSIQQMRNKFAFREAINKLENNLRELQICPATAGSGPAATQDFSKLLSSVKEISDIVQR
Please state the figure in %; there is no need to write the unit.

{"COMPOUND": "Cc1cc2c(F)c(Oc3cc(Nc4ccc(N5CCNCC5)cc4)ncn3)cc(F)c2[nH]1 [Compound 51]", "TARGET": "Abl kinase (Homo sapiens, UniProt P00519)", "READOUT_UNIT": "%", "inhibition at 1 µM": 73}
{"COMPOUND": "Cc1cc2c(F)c(Oc3ncnc(Nc4ccc(N5CCN(C)CC5)cn4)c3Cl)ccc2[nH]1 [Compound 34]", "TARGET": "Abl kinase (Homo sapiens, UniProt P00519)", "READOUT_UNIT": "%", "inhibition at 1 µM": 19}
{"COMPOUND": "Cc1cc2c(F)c(Oc3cc(Nc4ccc(N5CCN(C)CC5)cn4)ncn3)ccc2[nH]1 [Example 15]", "TARGET": "Abl kinase (Homo sapiens, UniProt P00519)", "READOUT_UNIT": "%", "inhibition at 1 µM": 84}

# input for lookup
Q: For the compound CCN1CCN(c2ccc(Nc3ncnc(Oc4ccc5[nH]c(C)cc5c4F)c3C(N)=O)cc2)CC1 [Compound 68] , give its reported inhibition at 1 µM.
Ans: 67

====

molecular target: KDR kinase (Homo sapiens); construct: purchased Millipore (KinaseProfiler Service); assay: KinaseProfiler kinase inhibition assay, KDR; format: biochemical; conditions: 1 μM compound
ATTRIBUTE_MEASURED: inhibition at 1 µM (%)
Please state the figure in %; there is no need to write the unit.

Some solved cases for reference:
{"SMI": "CCN1CCN(c2ccc(Nc3ncnc(Oc4ccc5[nH]c(C)cc5c4F)c3C(N)=O)cc2)CC1", "NUMERIC_RESULT": 96}
{"SMI": "Cc1cc2c(F)c(Oc3ncnc(Nc4ccc(N5CCNCC5)cc4)c3C#N)ccc2[nH]1", "NUMERIC_RESULT": 94}
{"SMI": "Cc1cc2c(F)c(Oc3ncnc(Nc4cc(C5CC5)n[nH]4)c3F)ccc2[nH]1", "NUMERIC_RESULT": 54}
{"SMI": "Cc1cc2c(F)c(Oc3ncnc(Nc4ccc(N5CCNCC5)cc4)c3F)ccc2[nH]1", "NUMERIC_RESULT": 97}
{"SMI": "CCN1CCN(c2ccc(Nc3ncnc(Oc4cc(F)c5[nH]c(C)cc5c4F)c3C#N)nc2)CC1", "NUMERIC_RESULT": 51}

Q: Provide inhibition at 1 µM, system KDR kinase (Homo sapiens), entry CCOC(=O)c1cc(Nc2cc(Oc3ccc4[nH]c(C)cc4c3F)ncn2)n[nH]1
Ans: 89

Q: Provide inhibition at 1 µM, system KDR kinase (Homo sapiens), entry Cc1cc2c(F)c(Oc3cc(Nc4ccc(N5CCN(C)CC5)cc4)ncn3)ccc2[nH]1
Ans: 97

Q: Provide inhibition at 1 µM, system KDR kinase (Homo sapiens), entry Cc1cc2c(F)c(Oc3ncnc(Nc4ccc(N5CCN(C)CC5)cc4)c3C)ccc2[nH]1
Ans: 12

Q: Provide inhibition at 1 µM, system KDR kinase (Homo sapiens), entry CCN1CCN(c2ccc(Nc3ncnc(Oc4ccc5c(cc(C)n5C)c4F)c3F)cc2)CC1
Ans: 10

Q: Provide inhibition at 1 µM, system KDR kinase (Homo sapiens), entry CC(=O)Nc1ccc(Nc2cc(Oc3ccc4[nH]c(C)cc4c3F)ncn2)cc1
Ans: 98

Q: Provide inhibition at 1 µM, system KDR kinase (Homo sapiens), entry CCN1CCN(c2ccc(Nc3ncnc(Oc4ccc5[nH]c(C)cc5c4F)c3C#N)cc2)CC1
Ans: 98

Q: Provide inhibition at 1 µM, system KDR kinase (Homo sapiens), entry C/C=C/c1cc(Nc2cc(Oc3ccc4[nH]c(C)cc4c3F)ncn2)n[nH]1
Ans: 90
